Molecular target: UniProt P35222
Sequence (P35222 whole entry): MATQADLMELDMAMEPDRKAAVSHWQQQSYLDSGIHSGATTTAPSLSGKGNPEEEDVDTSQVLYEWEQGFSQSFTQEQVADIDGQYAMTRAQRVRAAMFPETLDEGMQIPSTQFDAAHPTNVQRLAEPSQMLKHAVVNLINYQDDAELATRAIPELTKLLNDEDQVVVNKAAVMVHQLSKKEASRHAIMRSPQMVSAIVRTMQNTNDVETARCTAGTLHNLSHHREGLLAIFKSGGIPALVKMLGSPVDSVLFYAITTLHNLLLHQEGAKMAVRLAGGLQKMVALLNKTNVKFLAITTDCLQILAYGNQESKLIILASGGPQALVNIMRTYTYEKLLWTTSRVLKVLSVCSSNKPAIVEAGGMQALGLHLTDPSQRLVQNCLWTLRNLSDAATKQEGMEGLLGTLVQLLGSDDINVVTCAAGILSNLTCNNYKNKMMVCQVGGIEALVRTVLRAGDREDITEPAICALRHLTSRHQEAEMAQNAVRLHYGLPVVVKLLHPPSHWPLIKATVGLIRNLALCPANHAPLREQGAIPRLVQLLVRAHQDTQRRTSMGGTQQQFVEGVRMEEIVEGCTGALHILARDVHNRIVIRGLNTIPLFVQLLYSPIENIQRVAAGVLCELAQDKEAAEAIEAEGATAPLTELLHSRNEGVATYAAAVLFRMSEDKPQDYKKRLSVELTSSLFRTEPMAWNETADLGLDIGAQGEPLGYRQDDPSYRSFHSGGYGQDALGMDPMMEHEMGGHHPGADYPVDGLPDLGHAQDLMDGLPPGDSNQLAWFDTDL
Assay: KD50 measurement using competitive fluorescence polarization (FP) with labelled TCF4
Format: binding
Conditions: fluorescence polarization, β-catenin
Method: Fluorescence polarization (FP) is another method used to analyze protein-ligand interactions. This methodology measures the change in fluorescence light emitted by a labelled compound free vs. conjugated to another compound in solution. Upon binding of the fluorescent molecule to a complex, polarization increases because of limited rotation of the fluorescent tracer. […] Data were analyzed and plotted in Microsoft Excel (Microsoft, Redmond, WA). […]
*1 amine or outer side, *2 acyl side, *3 side chain or, on linkers, in order; H or OH if unused. Where a SMILES comes first, the peptide text is derived from it. Bridges are numbered along the chain shown (N, C = ends). [ ]: non-standard residue; d: D form. Glutaryl = O=C(CCCC(=O)[*:2])[*:1]; NMeNva = CCC[C@H](NC)C(=O)O
Value Kind: β-Cat FP Hill slope
Output spec: single numeric token, no unit.

Check out these entries, answers already filled in.
{"columns": ["Compound", "Experimental Result"],
 "data": [
  ["CC[C@H](C)[C@@H]1NC(=O)[C@H](CC(C)C)NC(=O)[C@H](Cc2ccccc2)NC(=O)[C@H](Cc2c[nH]c3ccccc23)NC(=O)[C@@H](N)CCCCNC(=O)CC[C@@H](C(=O)O)NC(=O)[C@H](Cc2c[nH]c3ccccc23)NC(=O)[C@H](C)NC(=O)[C@H](CO)NC1=O [compound 183] (HELM PEPTIDE1{K.W.F.L.I.S.A.W.E}$PEPTIDE1,PEPTIDE1,1:R3-9:R3$$$V2.0)", 0.7],
  ["CC[C@H](C)[C@@H]1NC(=O)[C@H](CC(C)C)NC(=O)[C@H](Cc2ccccc2)NC(=O)[C@H](Cc2c[nH]c3ccccc23)NC(=O)[C@@H](NC(C)=O)CCCCNC(=O)CC[C@@H](C(=O)O)NC(=O)[C@H](Cc2c[nH]c3ccccc23)NC(=O)[C@H](Cc2ccccc2)NC(=O)[C@H](CS)NC1=O [compound 185] (HELM PEPTIDE1{[ac].K.W.F.L.I.C.F.W.E}$PEPTIDE1,PEPTIDE1,2:R3-10:R3$$$V2.0)", 1.32],
  ["CC[C@H](C)[C@H](NC(=O)[C@H](CC(C)C)NC(=O)[C@H](Cc1ccccc1)NC(=O)[C@H](Cc1c[nH]c2ccccc12)NC(=O)[C@@H](N)CCSC)C(=O)N[C@@H](CO)C(=O)N[C@@H](Cc1ccccc1)C(=O)N[C@@H](Cc1c[nH]c2ccccc12)C(N)=O [compound 107] (H-MWFLISFW-NH2)", 0.7],
  ["CCC[C@H]1C(=O)N[C@@H](CCC(N)=O)C(=O)N[C@@H](CO)C(=O)N[C@@H](CC(C)C)C(=O)N[C@@H](Cc2ccccc2)C(=O)N(C)[C@@H](CCC)C(=O)N2CCC[C@H]2C(=O)N2CCC[C@H]2C(=O)N(C)[C@@H](CCC)C(=O)N[C@H](C(N)=O)CCCCNC(=O)CCCC(=O)N[C@@H](CCSC)C(=O)N[C@@H](CCSC)C(=O)N1C [compound 3] (MM[NMeNva]QSLF[NMeNva]PP[NMeNva]K-NH2; linker N-12 via Glutaryl)", 0.98],
  ["CC[C@H](C)[C@H](NC(=O)[C@H](CC(C)C)NC(=O)[C@H](Cc1ccccc1)NC(=O)[C@H](Cc1c[nH]c2ccccc12)NC(C)=O)C(=O)N[C@@H](C)C(=O)N[C@@H](Cc1ccccc1)C(=O)N[C@@H](Cc1c[nH]c2ccccc12)C(=O)NCC(=O)O [compound 196] (Ac-WFLIAFWG-OH)", 2.58]
]}

Attention now shifts to the item below.
Measured β-Cat FP Hill slope of CC[C@H](C)[C@H](NC(=O)[C@H](CC(C)C)NC(=O)[C@@H](N)Cc1ccccc1)C(=O)N[C@@H](CO)C(=O)N[C@@H](Cc1ccccc1)C(=O)N[C@@H](Cc1c[nH]c2ccccc12)C(=O)NCC(=O)O [compound 241] (H-FLISFWG-OH) : 0.7
